- Assay details: yeast display, Sf9 membrane polyspecificity reagent, FACS + sequencing; frameworks hold sequencing errors
Endpoint: polyreactivity (PSR sort gate)

Chain sequence | Endpoint | Readout value
QVQLVESGGGLVQAGGSLRLSCAASGRIFVCYAMGWYRQAPVKERELLAAITCRGGSTYYADSVKGRFTISRDNAKNTVYLQMNSLKPEDTEVYYCAAVGHSGGRRYDYWGQGTQVTVSS | polyreactivity (PSR sort gate) | high polyreactivity
QLHLVESGGGLVQAGGSLRLSCAASGITFAGYALGWYRQAPGKERELVASITWGGGRTYYADSVKGRFTSSRDNAKNTVYLQMNSLKPEATAVYYCATRRRPQYNKYDYWGQGTQLTVSS | polyreactivity (PSR sort gate) | high polyreactivity
QVQLVESGGGFVQARGSLRLSCAASGSIFWLYAMGWYSQAPGKERELVAAISWSTGGTYYADSVKGRFTISRDNAKNTVYLQMNSQKPEDTAVYYCNKLWVGKFKRYEFGYWGQGTQVTVSS | polyreactivity (PSR sort gate) | low polyreactivity
QVQLVESGGGLVQAGGSLRLSCAASGITFYGNAMGWYRQAPGKERELVAGIRSSGGDTYYADSVKGRFTISRDNAKNTVYLQMNSLKPEDTAVYYCAADFDWFIWGYDYWGQGTQVTVSS | polyreactivity (PSR sort gate) | low polyreactivity
QVQLVESGGGLVQAGGSLRISCAASGIIFDRYVMGWYRQAPGKERELVATITRSVNTDYADSVKGRFTISRDNAKNTVYLQMNSLKPEDTAVYYCAARKYYYFPVAYDYWGQGTQVTVSS | polyreactivity (PSR sort gate) | high polyreactivity

Problem: Which measured polyreactivity (PSR sort gate) value corresponds to QVQLVESGGGLVQAGGSLRLSCAASGSIFYRNTMGWYRQAPVKERELVAAITSSGDSTYYADSVKGRFTISRDNAKNTVYFQMNSLKPEDTAVYYCAKDQHDFLEALYDSWGQGTQVTVSS ?
Solution: low polyreactivity

Problem: Which measured polyreactivity (PSR sort gate) value corresponds to QVQLVESGGGLVQAGGSLRLSCAASGFTFRWNAMGWYRQAPGKERELVAAITSRGGSTYYADSVKGRFTISRDNAKNTVYLQINSLKPEDTAVYYCARLAGIGFSYRYDYWGQGTQVTVSS ?
Solution: high polyreactivity

Problem: Which measured polyreactivity (PSR sort gate) value corresponds to QVQLVESGGGLVQAGGSLRLSCAASGSIFFINAMGWYRQAPGKERELVADITSGGGTYYADSVKGRFTISRDNAKNTVYLQMNSLKPVDTAVYYCAKEYGFTGYGYWGQCTQVTVSS ?
Solution: low polyreactivity

Problem: Which measured polyreactivity (PSR sort gate) value corresponds to QDQLVESAGGLVQAGGSLRLSCAASGSNFYHYAMGWYRQAHGKERELVAAISQSGGGTYYADSVKGRFTISRDNAKNTVYLQMNSLKPEDTAVYYFAAKGRHNYYYWGQGTLVTVSS ?
Solution: high polyreactivity

Problem: Which measured polyreactivity (PSR sort gate) value corresponds to QVQLVESGGGLVQAGGSLRLSCAASGITFSYAMGWYRQAPGKERELVAGITTSGGSTYADSVKGRFTISRDNAKNTVYLQMNSLKPEDTAVYYCAADRSAVQFSAFLEYDYWGQGTQVTVSS ?
Solution: low polyreactivity

Problem: Which measured polyreactivity (PSR sort gate) value corresponds to QVQLVESGGGLVQAGGSLRLSCAASGNIFGVYTMGWYRQAPGKERELVAVITSGGRTYYADSVKGRFTISRDNAKNTVYLQMNSLKPADTAVYYCAADIRYTREEYWGQGPQVTVSS ?
Solution: high polyreactivity
